Target: Cytochrome P450 2C9 (Homo sapiens) (UniProt P11712)
Sequence (P11712 whole entry, looked up): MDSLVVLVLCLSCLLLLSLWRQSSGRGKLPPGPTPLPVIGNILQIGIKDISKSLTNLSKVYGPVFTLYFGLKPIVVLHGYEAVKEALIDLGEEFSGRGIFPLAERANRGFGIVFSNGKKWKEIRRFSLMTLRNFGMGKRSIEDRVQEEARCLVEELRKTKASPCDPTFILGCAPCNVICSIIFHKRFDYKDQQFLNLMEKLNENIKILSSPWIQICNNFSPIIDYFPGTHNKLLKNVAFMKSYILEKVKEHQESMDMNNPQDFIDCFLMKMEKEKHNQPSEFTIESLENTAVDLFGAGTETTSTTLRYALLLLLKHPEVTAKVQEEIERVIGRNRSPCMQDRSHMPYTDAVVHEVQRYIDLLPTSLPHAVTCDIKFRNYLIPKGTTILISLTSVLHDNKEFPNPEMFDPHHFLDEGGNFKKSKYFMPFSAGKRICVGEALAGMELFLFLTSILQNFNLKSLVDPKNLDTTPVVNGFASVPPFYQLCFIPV
Test: qHTS Assay for Inhibitors and Substrates of Cytochrome P450 2C9 (AID 883); further: nearly all actives have a fitted effect of over 60% in size
Conditions: recombinant CYP2C9, luciferin-H luminescence, 60 min; series mostly up to 11.4 µM
Inconclusive results are not listed. Calls of active or inactive are those of the source. The call rests on the fitted dose curve; in most records, active means well fitted inhibition curve with a large enough effect; inconclusive means small, poorly fitted or top-dose-only effect; inactive means no such curve, though single readings can be large or run the other way.
// classify into active, inactive

Sample answers from the record:
molecule=CCCNC(=O)OC[C@@H]1O[C@H](CCO/N=C\c2ccc(C(=O)N3[C@H](c4ccc(C)cc4)[C@@H](C)CC[C@H]3C(=O)OC)cc2)C=C[C@@H]1Oc1ccc(OC)cc1 labelvalue=active
molecule=O=C1C[C@@H](O)[C@@H](O)[C@H]2[C@@H]3C(=O)N(Cc4ccccc4)C(=O)[C@@H]3CC[C@H]12 labelvalue=inactive
molecule="COC(=O)C/C=C/C(C)C(OCc1cccc(-c2ccccc2)c1)C1CCCCC1 (centres undefined)" labelvalue=inactive
molecule=O=C1CCC[C@@H](C(C(=O)OCc2ccccc2)C(=O)OCc2ccccc2)C1 labelvalue=active
molecule="C=C(C)CC1(c2ccccc2)Oc2ccccc2-c2nc3cc(Cl)c(Cl)cc3nc21 (centres undefined)" labelvalue=inactive

Task item: Entry CN(C)c1cccc(OC2C=CC(C#Cc3ccccc3)OC2CO)c1 (centres undefined) : call = ?
Reply: inactive

###

Target: Cytochrome P450 2D6 (Homo sapiens)
Assay: qHTS Assay for Inhibitors and Substrates of Cytochrome P450 2D6 (AID 891);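 further: luciferin methyl ether substrate demethylated by CYP2D6 with NADPH regeneration; on the % scale 0 is the no-effect control and ±100 the full control effect; nearly all actives have a fitted effect of over 60% in size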
Conditions: recombinant CYP2D6, luciferin-ME EGE luminescence; series mostly up to 11.4 µM
Results filed as inconclusive are left out. Calls of active or inactive are those of the source. The call rests on the fitted dose curve; in most records, active means well fitted inhibition curve with a large enough effect; inconclusive means small, poorly fitted or top-dose-only effect; inactive means no such curve, though single readings can be large or run the other way.
readoutKind: outcome

Please review the entries below; each comes with its answer.
compound=COC(=O)C/C=C\[C@@H](C)[C@@H](/C=N\OC[C@@H](O)[C@H]1O[C@H]2OC(C)(C)O[C@H]2[C@@H]1O)OC studytarget="Cytochrome P450 2D6 (Homo sapiens)" result=inactive
compound="Cc1cc(C)cc(/C=C/C2OCC(O)C2Oc2ccc(C3CCCC3)cc2)c1 (stereo not given)" studytarget="Cytochrome P450 2D6 (Homo sapiens)" result=inactive
compound=CC1(C)Oc2cc3c(cc2O1)OC(C)(C)O3 studytarget="Cytochrome P450 2D6 (Homo sapiens)" result=inactive
compound="CC#CC(C)C(OCOC)C(CC(C)Cc1cc(Br)cc(OCc2ccccc2)c1OC)OC (stereo not given)" studytarget="Cytochrome P450 2D6 (Homo sapiens)" result=inactive
compound="CC1Cc2c(COc3ccccc3)nc3c(c2CO1)CN(CCOc1ccccc1)CC3 (stereo not given)" studytarget="Cytochrome P450 2D6 (Homo sapiens)" result=inactive

Task item: // query outcome value for entry Cc1ccccc1OC1C=CC(c2ccccc2)OC1CO (stereo not given)
Reply: inactive

Task item: Next: Cc1cc(=O)oc2cc(OC3C=CC(C#CC(C)(C)C)OC3CO)ccc12 (stereo not given)
Reply: inactive

Task item: Next: C=CCC1(C)OC=Cc2nc3cc(Cl)c(Cl)cc3nc21 (stereo not given)
Reply: inactive

Task item: Next: COc1ccc(OC2C=CC(C#Cc3ccccc3)OC2CO)cc1 (stereo not given)
Reply: inactive

Task item: Next: C=C(C)CC1(c2ccccc2)Oc2ccccc2-c2nc3cc(Cl)c(Cl)cc3nc21 (stereo not given)
Reply: inactive

###

Molecular target: Cytochrome P450 3A4 (Homo sapiens) (UniProt P08684)
Sequence (P08684 whole entry, looked up): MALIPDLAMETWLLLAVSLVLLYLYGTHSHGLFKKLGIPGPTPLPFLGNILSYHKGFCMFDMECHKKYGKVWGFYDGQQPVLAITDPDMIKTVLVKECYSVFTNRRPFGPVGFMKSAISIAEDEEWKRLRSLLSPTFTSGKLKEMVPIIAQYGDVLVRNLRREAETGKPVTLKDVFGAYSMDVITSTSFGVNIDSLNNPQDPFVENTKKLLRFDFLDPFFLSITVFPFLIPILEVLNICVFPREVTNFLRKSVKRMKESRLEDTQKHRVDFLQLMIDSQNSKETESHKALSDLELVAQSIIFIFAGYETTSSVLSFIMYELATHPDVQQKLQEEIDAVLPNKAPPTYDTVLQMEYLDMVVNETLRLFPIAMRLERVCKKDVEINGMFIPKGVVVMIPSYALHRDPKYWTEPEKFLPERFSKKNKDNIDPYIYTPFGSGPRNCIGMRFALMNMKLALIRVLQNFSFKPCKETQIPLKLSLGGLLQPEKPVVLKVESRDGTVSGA
Assay: qHTS Assay for Activators of Cytochrome P450 3A4 (AID 885); further: nearly all actives have a fitted effect of over 65% in size
Settings: recombinant CYP3A4, Luciferin-PPXE luminescence, 60 min; series mostly up to 57.1 µM
The source made the active and inactive calls. Calls follow the shape of the dose curve; as a rule, active = well fitted activation curve with a large enough effect; inconclusive = small, poorly fitted or top-dose-only effect; inactive = no such curve, though single readings can be large or run the other way.
readoutKind: activity change, positive = activation

Please review the entries below; each comes with its answer.
compound=CO[C@@H]1COC(=O)C/C=C\[C@@H](C)COC(=O)[C@H](COCc2ccccc2)NC(=O)C/C=C\[C@H]1C result="-56.3% [at 11.4 µM] (inactive)"
compound="COC(=O)c1ccc(C(NC(=O)OCc2ccccc2)/C(C)=C/[C@@H](C)C(=O)NCc2cc(F)cc(F)c2)cc1 (stereo partly specified)" result=inactive
compound=COC(=O)[C@@H]1C[C@@]2(O)[C@H](O)[C@H](O)[C@H](O)C[C@H]2N1Cc1ccc(C(F)(F)F)cc1 result=inactive
compound=C/C(CCN1CCCCc2nc(C)c(C)cc21)=N\O[C@@H](C)c1cc(-c2c(C)cc(C)cc2C)no1 result="-65.9% [at 11.4 µM] (inactive)"

Task item: I'm curious: which activity change, positive = activation was measured for COc1ccc(O[C@H]2C=C[C@@H](c3ccccc3)O[C@H]2COC(=O)CC/C(C)=N/O[C@@H]2O[C@H](COC(C)=O)[C@H](OC(C)=O)[C@H](OC(C)=O)[C@H]2OC(C)=O)cc1 tested on Cytochrome P450 3A4 (Homo sapiens) (UniProt P08684)?
Reply: -91.6% [at 11.4 µM] (inactive)

Task item: Next: CC(C)NC(=O)[C@@H]1C[C@@]1(C)[C@@H](NC(=O)OCc1ccccc1)c1ccccc1
Reply: inactive

Task item: Next: CCOC(=O)OCC1OC(C#Cc2ccc(C)cc2C)C=CC1OC(=O)OCC (stereo unspecified)
Reply: -58.4% [at 11.4 µM] (inactive)

Task item: Next: COC(=O)[C@@H]1C[C@@H]2CC[C@@H](O)C[C@@H]2N1Cc1ccccc1OS(=O)(=O)c1ccc(C)cc1
Reply: inactive

Task item: Next: COC(=O)c1cccc(C23CC4(C2)[C@H](CN(C)[C@@H]4c2ccccc2)C3c2ccccc2)c1 (stereo partly specified)
Reply: inactive

Task item: Next: CC1CCC2C(=O)OC(CN3C(=O)c4ccccc4C3=O)CN2C1c1ccc(Br)cc1 (stereo unspecified)
Reply: -55.7% [at 11.4 µM] (inactive)

Task item: Next: CCC1=C(OC(=O)N(CC)CC)N2C(=O)OC(=NCCc3c[nH]c4ccccc34)[C@]2(C)[C@H]2C1=CC[C@H]1C(=O)N(CC(=O)OC)C(=O)[C@H]12
Reply: inactive

Task item: Next: Cc1c(O)c(O)cc2c1oc1c3ccccc3oc(=O)c21
Reply: inactive

Task item: Next: C#CCCCO/N=C1/[C@H]2O[C@@H]2[C@@H](O)[C@H]2[C@H]1CCn1c(=O)n([C@@H](CC)c3ccccc3)c(=O)n12
Reply: -55.5% [at 11.4 µM] (inactive)

###

Test system: SC27B
Assay: qHTS profiling for inhibitors of Plasmodium falciparum proliferation (AID 504749);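 further: 0% = DMSO vehicle and full inhibition = artemisinin control; nearly all actives have a fitted effect of over 60% in size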
Settings: P. falciparum in erythrocytes, SYBR Green DNA, 72 h; series mostly up to 28.7 µM
Inconclusive results are not listed. Activity calls are given as the source filed them. Calls come from the whole dose curve; as a rule, active = well fitted inhibition curve with a large enough effect; inconclusive = small, poorly fitted or top-dose-only effect; inactive = flat fitted curve, though single readings scatter. Numbered stars: 1 amine (or outer) side, 2 acyl side, 3 side chain; on linkers, the order of the positions; unused ones are H or OH. Bridge positions count the residues as written; N and C are the ends. Square brackets hold non-standard residues; d marks the D form. Peptide text beside a SMILES is read from it. * marks the point of attachment. ξ: configuration not given here. ΔAla(Z-3-ureido) = NC(=O)N/C=C(\N)C(=O)O; X1 = NC1=NCCC(C(N[*:1])C(=O)[*:2])N1; ξβ3hOrn = NCCCC(N)CC(=O)*; Dap = NC[CH](N)C(=O)O
readoutKind: outcome

Please review the entries below; each comes with its answer.
compound="NCCCC(N)CC(=O)NCC1NC(=O)C(CO)NC(=O)C(N)CNC(=O)C(C2CCN=C(N)N2)NC(=O)/C(=C/NC(N)=O)NC1=O (stereo not drawn) (H-[Dap]S[Dap](ξβ3hOrn)[ΔAla(Z-3-ureido)][X1]; lactam 1-C; configuration not given here)" readoutkind=outcome result=inactive
compound="CCC1NC(=O)C(NC(=O)c2ncccc2O)C(C)OC(=O)C(c2ccccc2)NC(=O)C2CC(=O)CCN2C(=O)C(Cc2ccccc2)N(C)C(=O)C2CCCN2C1=O (stereo not given)" readoutkind=outcome result=inactive
compound="NC(=O)CCC1NC(=O)C(Cc2ccccc2)NC(=O)C(Cc2ccc(O)cc2)NC(=O)CCSSCC(C(=O)N2CCCC2C(=O)NC(CCCN=C(N)N)C(=O)NCC(N)=O)NC(=O)C(CC(N)=O)NC1=O (stereo not given)" readoutkind=outcome result=inactive
compound="C=CC1=C(C(=O)O)N2C(=O)[C@@H](NC(=O)C(N=O)c3csc(N)n3)[C@H]2SC1 (stereo not given in full)" readoutkind=outcome result=inactive

Task item: // query outcome value for entry CC(C)C[C@H](NC(=O)[C@@H](Cc1c[nH]c2ccccc12)NC(=O)[C@@H](Cc1ccc(O)cc1)NC(=O)[C@@H](CO)NC(=O)[C@@H](Cc1c[nH]c2ccccc12)NC(=O)C(Cc1cnc[nH]1)NC(=O)C1CCC(=O)N1)C(=O)N[C@@H](CCCN=C(N)N)C(=O)N1CCC[C@@H]1C(=O)NCC(N)=O (stereo not given in full)
Reply: inactive

###

Test: qHTS profiling for inhibitors of Plasmodium falciparum (DD2) proliferation (AID 743323)
Conditions: lower = more inhibition; at 28.7 µM (top of the series)
Item-by-item account of activity, percent of control
Number in %, nothing else.

Please review the entries below; each comes with its answer.
compound=O=C([C@H](Cc1ccc(O[S+](=O)([O-])c2cccnc2)cc1)N[S+](=O)([O-])c1cccnc1)N1CCN(c2ccccc2)CC1 measureunit=% measurednumber=16.7
compound=CC(C)(C)OC(=O)N[C@@H](Cc1ccc(O[S+](=O)([O-])c2ccccn2)cc1)C(=O)N1CCN(c2ccccc2)CC1 measureunit=% measurednumber=11.4
compound=CCN(CC)CCOc1ccc2c(=O)c3ccc(Cl)cc3n(CCN(CC)CC)c2c1 measureunit=% measurednumber=0.385
compound=COC(=O)[C@H](Cc1ccc(O[S+](=O)([O-])c2cccc3cnccc23)cc1)N[S+](=O)([O-])c1ccc2cnccc2c1 measureunit=% measurednumber=29.2
compound=O=CN(O)CCCP(=O)(O)O measureunit=% measurednumber=11.8

Task item: // query activity, percent of control value for entry O=C([C@H](Cc1ccc(OS(=O)(=O)c2ccccn2)cc1)NS(=O)(=O)c1ccccn1)N1CCN(c2ccccc2)CC1
Reply: 24.7
